Origin of the recorded values: patent US11419803B2

test system: Neonatal foreskin primary human epidermal melanocytes; assay: Cell viability, calcein method; type: cell-based; details: human, 72 h, 25 µM

Compound: CCCCCCCCOc1ccc(C(=O)O)cc1 [Example 3, 4-octyloxybenzoic acid]
% Viability [%]: 86

Compound: CCCCCCCCCCCOc1ccc(C(=O)O)cc1 [Example 5, 4-undecyloxybenzoic acid]
% Viability [%]: 79

Compound: CCCCCCCCCOc1ccc(C(=O)O)cc1 [Example 4, 4-nonyloxybenzoic acid]
% Viability [%]: 103

Compound: CCCCCCCc1ccc(C(=O)O)cc1 [Example 1, 4-heptyl benzoic acid]
% Viability [%]: 93

====

test system: Neonatal foreskin primary human epidermal melanocytes; test: Melanin content assay; type: cell-based; conditions: 10 micromolar, 72 hours, compared to vehicle control = 100
The molecules listed here are annotated with their % Melanin content.

Smiles structure: CCCCCCCCOc1ccc(C(=O)O)cc1
% Melanin content / %: 127
--
Smiles structure: CCCCCCCCCCCOc1ccc(C(=O)O)cc1
% Melanin content / %: 136
--
Smiles structure: CCCCCCCOc1ccc(C(=O)O)cc1
% Melanin content / %: 117
--
Smiles structure: CCCCCCCCCOc1ccc(C(=O)O)cc1
% Melanin content / %: 129
